All values here come from PubChem BioAssay AID504848.

protocol description: Confirmation screen for delayed death inhibitors of the malarial parasite plastid, 96 hour incubation; also: nearly all actives have a fitted effect of over 60% in size
condition summary: P. falciparum luciferase growth in erythrocytes; series mostly up to 28.7 µM
The campaign covered roughly 2,300 compounds. About 1,400 (61%) were called active. Not shown: some 29% with an inconclusive outcome. Calls follow the shape of the dose curve; as a rule, active = well fitted inhibition curve with a large enough effect; inconclusive = small, poorly fitted or top-dose-only effect, or effect the other way; inactive = no such curve, though single readings can be large or run the other way. So high a share suggests a set chosen from earlier hits. The list shows a part of the results.
Reply using exactly one outcome from Yes (active), No (inactive)

Qu. Record lookup: outcome of this test for Cc1ccc(C(=O)NCC(=O)NCCCc2ccccc2)s1 ?
Ans. No

Qu. Record lookup: outcome of this test for CCOC(=O)C1CCCN(C(=O)c2cc3cc4ccc(OC)cc4nc3o2)C1 (stereo not given) ?
Ans. Yes

Qu. Record lookup: outcome of this test for Cc1onc(-c2c(Cl)cccc2Cl)c1C(=O)NC1CCCCC1 ?
Ans. Yes

Qu. Record lookup: outcome of this test for COC(=O)c1c(NC(=O)c2ccco2)sc2c1CC(C)(C)NC2(C)C ?
Ans. Yes

Qu. Record lookup: outcome of this test for CCO[C@H]1OC(C(=O)N2CCN(Cc3ccccc3)CC2)=C[C@@H](c2ccc(C(F)(F)F)cc2)[C@@H]1CCCO ?
Ans. Yes

***
Qu. Record lookup: outcome of this test for COc1ccc(NC2=C(NC(C)=O)C(=O)c3ccccc3C2=O)cc1 ?
Ans. Yes

Qu. Record lookup: outcome of this test for CC(=O)NC1=C(Nc2ccc(N(C)C)cc2)C(=O)c2ccccc2C1=O ?
Ans. Yes

* * *

protocol description: Confirmation screen for delayed death inhibitors of the malarial parasite plastid, 96 hour incubation; also: nearly all actives have a fitted effect of over 60% in size
condition summary: P. falciparum luciferase growth in erythrocytes; series mostly up to 28.7 µM
Among all 2,300 compounds or so, about 1,400 (61%) were called active. Roughly 29% stayed inconclusive and do not appear here. Calls come from the whole dose curve; as a rule, active = well fitted inhibition curve with a large enough effect; inconclusive = small, poorly fitted or top-dose-only effect, or effect the other way; inactive = no such curve, though single readings can be large or run the other way. The set was probably picked from earlier hits. This is one part of the list.
Reply using exactly one outcome from 1 = active, 0 = inactive

Qu. Record lookup: outcome of this test for C=CCn1c(SCc2cc(=O)n3cc(C)ccc3n2)nnc1-c1ccc(F)cc1 ?
Ans. 1

***
Qu. Record lookup: outcome of this test for COc1ccc2c(C)cc(Sc3nnnn3-c3ccccc3)nc2c1 ?
Ans. 1

Qu. Record lookup: outcome of this test for CCCCNC(=O)c1onc(CSc2ccc(Cl)cc2)c1C(=O)O ?
Ans. 0

Qu. Record lookup: outcome of this test for ClC(/C=N/n1cnnc1)=C/c1ccccc1 ?
Ans. 1

Qu. Record lookup: outcome of this test for COc1cccc(NC(=O)[C@H](Cc2c[nH]c3ccccc23)NC(=O)[C@@H]2Cc3ccccc3CN2)c1 ?
Ans. 1

Qu. Record lookup: outcome of this test for COc1ccc2nc3sc(C(=O)NCCN4CCc5ccccc5C4)cc3cc2c1 ?
Ans. 1

Qu. Record lookup: outcome of this test for COc1cc(/C=C/C(=O)c2ccc(C)cc2)ccc1OCC#N ?
Ans. 1

Qu. Record lookup: outcome of this test for N#C/C(=C\c1ccc(-c2ccc(C(=O)O)cc2)o1)C(=O)Nc1ccc(F)cc1 ?
Ans. 1

Qu. Record lookup: outcome of this test for CN1C(=O)c2ccccc2N(C)C1c1cccc(O)c1 (stereo not drawn) ?
Ans. 1

* * *

protocol description: Confirmation screen for delayed death inhibitors of the malarial parasite plastid, 96 hour incubation; also: nearly all actives have a fitted effect of over 60% in size; also: potency is read from the fitted curve at half-maximal effect
condition summary: P. falciparum luciferase growth in erythrocytes; series mostly up to 28.7 µM
About 1,400 (61%) of roughly 2,300 compounds were called active. Another 29% or so got no clear call; they are omitted. The set was probably picked from earlier hits. The list shows a part of the results.
Consider the following compounds and their measured Potency readings.

Qu. Quickly give me recorded Potency for Cc1ccccc1C(=O)N1CCN(c2ccc(NC(=O)c3ccc([N+](=O)[O-])o3)cc2)CC1
Ans. 6.31 µM (active)

Qu. Quickly give me recorded Potency for COc1ccccc1CCC(=O)N1CCN(S(=O)(=O)c2cc(C(F)(F)F)ccc2Cl)CC1
Ans. 11.2 µM (active)

Qu. Quickly give me recorded Potency for CCOC(=O)c1c(C)sc2c1N(C(=O)CCl)c1cc(Cl)ccc1S2
Ans. 2 µM (active)

Qu. Quickly give me recorded Potency for O=C(Nc1ccc(N2CCN(C(=O)c3ccco3)CC2)cc1)c1ccc(F)cc1
Ans. 3.98 µM (active)

Qu. Quickly give me recorded Potency for CCN1C(=O)[C@@H]2[C@@H](c3ccc(SC4CCCCC4)c(OC)c3)N3CCC[C@@]3(C(=O)OC)[C@@H]2C1=O
Ans. 2.51 µM (active)

# context switch: different compound, same Potency
Qu. Quickly give me recorded Potency for O=C(NCCN1CCOCC1)c1ccc(Cl)c(S(=O)(=O)N2CCCCC2)c1
Ans. 14.1 µM (active)
